Test system: SNB-75 CNS
assay details: NCI-60 one-dose screen, 48 h (100 = growth as untreated, 0 = no growth, -100 = all killed)
assay setup: 10 µM unless noted
This is part of a sample that, as a whole, favours compounds with a hit. Of some 83,000 tested, about 20% had one in any assay.
property name: growth (%)
Supply the numeric figure in %, leaving out any unit text.

The following molecules have reported results that may help.
molecule: O=C(OCCOCCO)N(c1cccc(Br)c1)c1nc(SCCN2CCOCC2)nc2c1cnn2CC(Cl)c1ccc(Br)cc1 (centres undefined)
display unit: %
growth: 47.7
//
molecule: COc1ccc2[nH]cc(-c3cc(N)n4nc(-c5c[nH]c6ccccc56)cc4n3)c2c1
display unit: %
growth: 82.1
//
molecule: COc1ccc2c(c1)C(Sc1ccc(F)cc1)c1c(nc(N)c(C#N)c1N)O2 (centres undefined)
display unit: %
growth: 66.5
//
molecule: Cc1ccc2nc(SCc3ccccc3F)n(-c3ccccc3)c(=O)c2c1
display unit: %
growth: 156
//
molecule: O=C(CSc1nnc(-c2ccc(-c3nc4ccc(Cl)cc4[nH]3)cc2)o1)Nc1ccccc1
display unit: %
growth: -16.8
//
molecule: O=C1NC(=NC23CC4CC(CC(C4)C2)C3)N/C1=C\c1ccc2ncccc2c1
display unit: %
growth: -66.3
//
molecule: CCC(=O)c1cc(C(=O)OC)c2ccc3c4ccccc4ccc3n12
display unit: %
growth: 47
//
molecule: O=C(c1ccc(Cl)cc1)C1[C@H](c2ccccc2Cl)[C@@H](c2ccccc2)NC12C(=O)Nc1ccc(Cl)cc12 (some centres undefined)
display unit: %
growth: -16.4

Pending molecule:
Input: Find the recorded growth belonging to CCOc1ccccc1[C@H]1C(C(=O)c2ccc(Cl)cc2)C2(N[C@@H]1c1ccccc1)C(=O)Nc1ccccc12 (some centres undefined) and report it.
Output: 46.9
